System: OVCAR-8 ovarian
measurement_description: NCI tumour cell line growth inhibition, 48 h
endpoint_label: TGI

O=C(NC(=O)c1ccccc1[N+](=O)[O-])Nc1ccc(Oc2ncc(Br)cn2)c(Cl)c1 ... 0.0736 µM
CCN1CCN(Cc2ccc(NC(=O)c3cccc(C#Cc4cccc5[nH]nc(N)c45)c3)cc2C(F)(F)F)CC1 ... 1.53 µM

Return reported TGI values for all items listed beneath this line.
1. Cc1ccc(C(=O)O)cc1S(=O)(=O)Nn1cnc2ccc(S(=O)(=O)Nc3ccccc3C(=O)O)cc2c1=O
2. O=[N+]([O-])c1ccc2c(c1)/C(=N/N=C1c3ccccc3Cc3ccccc31)c1cc([N+](=O)[O-])cc([N+](=O)[O-])c1-2
3. Nc1ccccc1C#C/C=C\C#Cc1ccccc1OC(F)(F)F

> 100 µM
3.24 µM
47.2 µM

Return reported TGI values for all items listed beneath this line.
1. Cc1n[nH]c(=O)n1/N=C/c1ccc(Cl)cc1
2. COc1ccccc1N1C(=O)C2c3[nH]c4ccccc4c3C3CCC(C(C)(C)C)CC3C2C1=O (stereo not given)
3. CC1(C(=O)O)CCC[C@@]2(C)C1CC[C@@]1(C)c3cocc3CCC21 (stereo not given in full)
4. COC(CCC[N+](C)(C)C)CC[N+](C)(C)C (stereo not given)
5. NC(=O)NCCCC(NC(=O)OCCCCn1ccc(=O)[nH]c1=O)C(=O)O (stereo not given)

> 100 µM
> 100 µM
> 100 µM
> 100 µM
> 100 µM

* * *

Test system: NCI-H23 lung
measurement_description: NCI tumour cell line growth inhibition, 48 h; in the data active = GI50 below about 0.43 µM; inactive = the rest
Your response should consist of one outcome taken from YES for active, NO for inactive

Cn1cc(C2=C(c3c4n(c5ccccc35)CCCCC4)C(=O)NC2=O)c2ccccc21 ... NO
Nc1c(C(=O)c2cccc(CCS(N)(=O)=O)c2)cnn1-c1ccc(F)cc1 ... NO
O=C(Nc1ccccc1)c1c(O)[nH]c(=S)[nH]c1=O ... NO
OC1CSSC1Cn1cnc2c(Nc3ccc(OCc4cccc(F)c4)c(Cl)c3)ncnc21 (stereo unspecified) ... NO
CC1CCc2nc[nH]c(=O)c21 (stereo unspecified) ... NO
Cc1ccc(CN2CCC(C(=O)Nc3ccc(-c4cc5ccccc5[nH]4)cc3)CC2)o1 ... NO

# lookup: test call for CCC(=O)[C@H](C)[C@@H](OC(=O)[C@H](C)CC)[C@H](C)[C@H]1OC(CC)=C(C)C(=O)[C@@H]1C
NO

How about this compound: CN1CCCCC1CCN1c2ccccc2Sc2ccc(Cl)cc21 (stereo unspecified)
NO

How about this compound: Cc1nc2sccn2c1-c1csc(Nc2ccccc2Cl)n1
NO

How about this compound: Cc1ccc2c(C)c3c(ccc4ccccc43)c[n+]2c1
NO

How about this compound: O=C(NC(=O)c1ccccc1[N+](=O)[O-])Nc1ccc(Oc2ncc(Br)cn2)c(Cl)c1
YES

* * *

Tested on: SF-539 CNS
measurement_description: NCI tumour cell line growth inhibition, 48 h; in the data active means GI50 below about 0.43 µM; inactive means the rest
Your response should consist of one outcome taken from 1 = active, -1 = inactive

Nc1c(C(=O)c2cccc(CCS(N)(=O)=O)c2)cnn1-c1ccc(F)cc1 ... -1

# lookup: test call for CN(C)c1ccc(/C=C\C2=[N+](C)c3ccccc3C2(C)C)cc1
-1

How about this compound: OCc1cc2ccccc2c2c3c(ccc12)OCO3
-1

How about this compound: OCCN(CCO)c1ncnc2c1ncn2Cc1ccc(CCl)cc1
-1

How about this compound: Cn1cc(C2=C(c3c4n(c5ccccc35)CCCCC4)C(=O)NC2=O)c2ccccc21
-1

How about this compound: O=C1c2ccccc2-c2c1c1ccccc1c(=O)n2CCNCCNCCNCCn1c2c(c3ccccc3c1=O)C(=O)c1ccccc1-2
1

How about this compound: Nc1ccccc1C#C/C=C\C#Cc1ccccc1OC(F)(F)F
-1

How about this compound: C=CC(=O)Nc1cc(Nc2ncc(C(=O)OC(C)C)c(-c3cn(C)c4ccccc34)n2)c(OC)cc1N(C)CCN(C)C
-1

How about this compound: Cc1ccc(CN2CCC(C(=O)Nc3ccc(-c4cc5ccccc5[nH]4)cc3)CC2)o1
-1

How about this compound: O=C(Nc1ccccc1)c1c(O)[nH]c(=S)[nH]c1=O
-1

How about this compound: O=C(Nc1ccc(F)cc1)Nc1ccc(Cl)c([N+](=O)[O-])c1
-1

How about this compound: Cc1ccc(NC(=O)Nc2ccc(-c3cccnc3)cc2N2CCC(CO)CC2)cc1
-1

* * *

So I've got a bunch of compounds here, and I need their TGI values.
Test system: OVCAR-5 ovarian
measurement_description: NCI tumour cell line growth inhibition, 48 h

Return reported TGI values for all items listed beneath this line.
1. O=C1/C(=C\c2ccccc2)C(NC2CCCCC2)c2ccccc21 (stereo not given)
2. C=C1C(=O)O[C@@H]2C(=O)[C@@H](C)CCC/C(C)=C/CC[C@@]3(C)O[C@@H]3C[C@@H]12
3. O=C(CC(=O)c1cccc2ccccc12)C(=O)Nc1ccc(Cl)cc1
4. C=CCN1C[C@H](C)N([C@H](c2ccc(C(=O)NC(CC)CC)cc2)c2cccc(OC)c2)C[C@H]1C
5. COc1cc2c(c(OC)c1OC)-c1ccc(NNC(N)=S)c(=O)cc1[C@@H](NC(C)=O)CC2
6. Nc1nc(-n2c(-c3ccccc3)nc3c(Br)cc(Br)cc3c2=O)nnc1-c1cccc(Cl)c1Cl
7. Cc1ccc(Cl)c2[nH]c(-c3ccccc3)cc(=O)c12

1: 10.4 µM; 2: > 100 µM; 3: > 100 µM; 4: > 100 µM; 5: > 100 µM; 6: 50.9 µM; 7: > 100 µM

Return reported TGI values for all items listed beneath this line.
1. O=C(CCN1CCCCC1)C(=Cc1ccccc1)C(=O)CCN1CCCCC1
2. C[C@@H]1CC[C@]2(C(=O)O)CC[C@]3(C)C(=CC[C@@H]4[C@@]5(C)CC[C@H](O)C(C)(C)[C@@H]5CC[C@]43C)[C@@H]2[C@]1(C)O
3. Cc1c(C(=O)C/C(=N/NC(=O)c2ccccc2O)C(=O)Nc2ccccc2C(C)C)[n+](=O)c2ccccc2n1[O-]

1: > 100 µM; 2: 31.5 µM; 3: > 100 µM

* * *

So I've got a bunch of molecules here, and I need their TGI values.
Tested on: SF-295 CNS
measurement_description: NCI tumour cell line growth inhibition, 48 h

COc1cc2cc(OC)c3cc4c(cc3c2c(OC)c1OC)OCO4 ... > 76 µM
Cc1n[nH]c(=O)n1/N=C/c1ccc(Cl)cc1 ... > 100 µM
O=C(CCc1nc(=S)[nH][nH]1)Nc1ccc(Cl)c(Cl)c1 ... > 100 µM
Cc1ccc(N=NC(=Nc2ccccc2)c2ccc(N(CCC#N)CCC#N)cc2)cc1 ... 92.4 µM
O=C1/C(=C/c2ccccc2)N=C2Sc3c(nc[nH]c3=O)N12 ... > 100 µM
COc1ccc2cc(NC(=O)N/N=C\c3ccc([N+](=O)[O-])cc3)ccc2c1 ... > 100 µM

Return reported TGI values for all items listed beneath this line.
1. c1ccc(-c2nc(-c3ccccc3SSc3ccccc3-c3nc(-c4ccccc4)nn3-c3ccccc3)n(-c3ccccc3)n2)cc1
2. Cc1cnc(NCCCN(C)C)c2c1[nH]c1ccc3cc(O)ccc3c12
3. COC(=O)CC[N+]1=CCC(c2ccccc2)(c2ccccc2)O1
4. NS(=O)(=O)OC[C@@H]1C[C@@H](n2ccc3c(NC4CCc5ccccc54)ncnc32)C[C@@H]1O (some centres undefined)

1. > 100 µM
2. 2.89 µM
3. > 100 µM
4. 4.52 µM

Return reported TGI values for all items listed beneath this line.
1. C[C@@H]1CC[C@]2(C(=O)O)CC[C@]3(C)C(=CC[C@@H]4[C@@]5(C)CC[C@H](O)C(C)(C)[C@@H]5CC[C@]43C)[C@@H]2[C@]1(C)O
2. CN1C(=O)C2CCC(=O)N2c2cccnc21 (centres undefined)
3. C#CCNC(CS)C(=O)O (centres undefined)

10.6 µM
> 100 µM
> 100 µM

Sample COc1cc2ccnc([C@@H](OC(=O)c3ccccc3)c3ccc(OC)c(OC)c3OC)c2cc1OC — what was its TGI?
> 100 µM

* * *

Tested on: MDA-N
measurement_description: NCI tumour cell line growth inhibition, 48 h
So I've got a bunch of compounds here, and I need their TGI values.

CCOC(=O)Cn1c(C(F)(F)F)nc2nc(Cl)c(Cl)nc21 ... > 100 µM
Cc1ccc(C(=O)O)cc1S(=O)(=O)Nn1cnc2ccc(S(=O)(=O)Nc3ccccc3C(=O)O)cc2c1=O ... > 100 µM
COC(=O)C1SC(SC)=NC12c1ccccc1Nc1ccccc12 (centres undefined) ... 70.6 µM
O=[N+]([O-])c1ccc2c(c1)/C(=N/N=C1c3ccccc3Cc3ccccc31)c1cc([N+](=O)[O-])cc([N+](=O)[O-])c1-2 ... 9.38 µM
COC(=O)C([C@H](NC1(c2ccccc2)c2ccccc2-c2ccccc21)C(=O)OC)N(NC(=O)OCc1ccccc1)C(=O)OCc1ccccc1 (mixture of isomers) ... > 100 µM
CN1C(=O)C2CCC(=O)N2c2cccnc21 (centres undefined) ... > 100 µM
CC(=O)O[C@@H]1[C@H](C(C)C)[C@@H](OC(C)=O)C/C(C)=C/CC[C@]2(C)O[C@@H]12 ... > 100 µM
CCOC(=O)C1(C/C=C/CBr)Cc2ccccc2C1=O (centres undefined) ... 6.37 µM

Sample O=C1CCCSC(=O)N1Cc1ccccc1 — what was its TGI?
> 100 µM
